- Target Or System: Sulfotransferase 1E1 (Homo sapiens) (UniProt P49888)
- Sequence (P49888 whole entry, looked up): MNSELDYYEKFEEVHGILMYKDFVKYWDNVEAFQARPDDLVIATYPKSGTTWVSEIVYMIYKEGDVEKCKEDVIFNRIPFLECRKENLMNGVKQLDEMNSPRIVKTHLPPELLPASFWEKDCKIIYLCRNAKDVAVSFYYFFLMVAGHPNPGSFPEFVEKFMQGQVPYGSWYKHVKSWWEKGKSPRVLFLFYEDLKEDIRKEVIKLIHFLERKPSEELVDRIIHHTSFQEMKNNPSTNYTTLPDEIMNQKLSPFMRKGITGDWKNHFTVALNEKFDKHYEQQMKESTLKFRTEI
- Experimental Details: SULT1E1 thermal stabilisation by ligands, biophysical, StarGazer light scattering, human (AID 747)
- Experimental Parameters: purified SULT1E1, StarGazer light scattering thermal shift; at 1 mM; stronger effect = higher value
# maps each entry to its Tagg shift
Answer in °C, number only, no unit symbol.

Some molecules with recorded Tagg shift:
Molecule | Unit Of Measure | Tagg shift
Cc1ccc(O)cc1 | °C | 0
NC(Cc1cc(I)c(Oc2ccc(O)c(I)c2)c(I)c1)C(=O)O (stereo not drawn) | °C | 2.6
COC(=O)CCC(C)C1CCC2C3CCC4CC(O)CCC4(C)C3CCC12C (stereo not drawn) | °C | 1.2
CC(C)NCC(O)c1ccc(O)c(O)c1 (stereo not drawn) | °C | 0
CN1CCc2cccc3c2C1Cc1ccc(O)c(O)c1-3 (stereo not drawn) | °C | 0

Supply Tagg shift value. Item: `O=[N+]([O-])c1cc(Cl)c(O)c(Cl)c1`
1.4

Supply Tagg shift value. Item: `O=C(O)c1ccccc1O`
0
